Property: melting point; scope: individual molecules

molecule | value-reported
Cc1ccc(S(=O)(=O)n2ncc3c(N4CCN(Cc5ccccc5)CC4)cccc32)cc1 [Example 72] | 215 to 217 °C
O=S(=O)(c1cc(Cl)c(Cl)s1)n1ncc2c(N3CCN(Cc4ccccc4)CC3)cccc21 [Example 71] | 235 to 237 °C
O=S(=O)(c1ccccc1)n1ncc2c(N3CCN(CCOc4ccc(F)cc4)CC3)cccc21 [Example 60] | 184 to 186 °C
O=S(=O)(c1ccc(OC(F)(F)F)cc1)n1ncc2c(N3CCN(Cc4ccccc4)CC3)cccc21 [Example 70] | 229 to 231 °C
O=S(=O)(c1ccccc1)n1ncc2c(N3CCN(CCCc4ccccc4)CC3)cccc21 [Example 63] | 188 to 190 °C
O=S(=O)(c1ccc(Cl)cc1)n1ncc2c(N3CCN(Cc4ccccc4)CC3)cccc21 [Example 67] | 238 to 239 °C
CCCN1CCN(c2cccc3c2cnn3S(=O)(=O)c2ccccc2)CC1 [Example 64] | 258 to 260 °C

Turning to the following molecule.
Entry COc1ccc(S(=O)(=O)n2ncc3c(N4CCN(Cc5ccccc5)CC4)cccc32)cc1 [Example 69] ; melting point = 206 to 209 °C
